The values you see were collected from patent US6911445B2.

# IC50 per entry for cloned human 5HT1A receptors (Homo sapiens, UniProt P08908)
endpoint: IC50 (nM)

As a guide, the following entries are already answered.
Cc1ccc2c3c(ccc2n1)OC[C@H](CN[C@H]1CC[C@@H](c2c[nH]c4ccc(F)cc24)C1)O3 (mixture of isomers) [Example 3]    83
Cc1ccc2c3c(ccc2n1)OCC(CNC1CCC(c2c[nH]c4ccc(F)cc24)C1)O3 (single isomer, unassigned) [Example 3-Isomer B]    34

[A] Cc1ccc2c3c(ccc2n1)OCC(CNC1CCC(c2cn(C)c4ccc(F)cc24)C1)O3 (single isomer, unassigned) [Example 5-Isomer A]
[B] Cc1nc2ccc3c(c2o1)O[C@@H](CN[C@H]1CC[C@@H](c2c[nH]c4ccc(F)cc24)C1)CO3 (mixture of isomers) [Example 11]
[C] Cc1ccc2c3c(ccc2n1)OC[C@H](CN[C@@H]1CC[C@@H](c2c[nH]c4ccc(F)cc24)C1)O3 (single isomer, unassigned) [Example 4-Isomer B]
Problem: Arrange these 3 molecules in increasing order of IC50. Returns: the labels listed in the requested order.
Result: A, B, C

[P] Cc1ccc2c3c(ccc2n1)OCC(CNC1CCC(c2cn(C)c4ccc(F)cc24)C1)O3 (single isomer, unassigned) [Example 5]
[Q] Cc1ccc2c3c(ccc2n1)OC[C@H](CN[C@H]1CC[C@H](c2c[nH]c4ccc(F)cc24)C1)O3 (single isomer, unassigned) [Example 4-Isomer A]
Problem: IC50 comparison. Which is larger, P or Q ? State the label of the item chosen.
Result: P

[P] Cc1ccc2c3c(ccc2n1)OC[C@H](CN[C@@H]1CC[C@H](c2c[nH]c4ccc(F)cc24)C1)O3 (single isomer, unassigned) [Example 3-Isomer A]
[Q] Cc1ccc2c3c(ccc2n1)OCC(CNC1CCC(c2cn(C)c4ccc(F)cc24)C1)O3 (single isomer, unassigned) [Example 5-Isomer B]
Problem: IC50 comparison. Which is larger, P or Q ? State the label of the item chosen.
Result: Q
(Q: 158 nM, P: 69 nM)

* * *

- system tested: human 5HT1A receptors (Homo sapiens)
- Construct: expressed in transfected cells; host or cells: CHO cells
- Sequence (P08908 whole entry): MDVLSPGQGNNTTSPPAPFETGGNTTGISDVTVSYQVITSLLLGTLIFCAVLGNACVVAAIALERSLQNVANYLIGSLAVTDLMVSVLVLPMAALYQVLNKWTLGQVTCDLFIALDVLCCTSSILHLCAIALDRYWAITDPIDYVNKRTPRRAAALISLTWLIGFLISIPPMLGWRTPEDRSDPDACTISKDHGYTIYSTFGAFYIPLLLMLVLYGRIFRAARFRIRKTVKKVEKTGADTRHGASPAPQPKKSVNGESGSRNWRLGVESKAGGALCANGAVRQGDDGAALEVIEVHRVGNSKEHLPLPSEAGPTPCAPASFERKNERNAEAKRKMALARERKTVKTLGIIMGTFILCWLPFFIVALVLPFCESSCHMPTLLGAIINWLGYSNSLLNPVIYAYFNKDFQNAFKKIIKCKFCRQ
- measurement notes: Displacement of [3H] 8-OH-DPAT from 5HT1A receptor in stably transfected CHO cells
- Assay type: binding
- condition description: CHO cells with human 5HT1A receptors, read-out: 5HT1A Receptor Affinity Ki
pKi: −log10 of the molar value.
endpoint: pKi

As a guide, the following entries are already answered.
Cc1ccc2c3c(ccc2n1)OC[C@H](CN[C@H]1CC[C@@H](c2c[nH]c4ccc(F)cc42)CC1)O3 [Example 7]    7.29
Cc1ccc2c3c(ccc2n1)OCC(CNC1CCC(c2cn(C)c4ccc(F)cc24)C1)O3 (single isomer, unassigned) [Example 5]    8.27
Cc1ccc2c3c(ccc2n1)OCC(CNC1CCC(c2cn(C)c4ccc(F)cc24)C1)O3 (single isomer, unassigned) [Example 5-Isomer B]    8.72
Cc1nc2ccc3c(c2o1)O[C@@H](CN[C@H]1CC[C@@H](c2c[nH]c4ccc(F)cc42)CC1)CO3 [Example 12]    7.07
Cc1ccc2c3c(ccc2n1)OC[C@H](CN(C)[C@H]1CC[C@@H](c2c[nH]c4ccc(F)cc24)C1)O3 (mixture of isomers) [Example 9]    8.30
Cc1ccc2c3c(ccc2n1)OC[C@H](CN[C@H]1CC[C@H](c2c[nH]c4ccc(F)cc24)C1)O3 (single isomer, unassigned) [Example 4-Isomer A]    8.11
Cc1ccc2c3c(ccc2n1)OC[C@H](CN[C@H]1CC[C@H](c2c[nH]c4ccc(F)cc42)CC1)O3 [Example 8]    7.84
Cc1ccc2c3c(ccc2n1)OC[C@H](CN(C)[C@@H]1CC[C@H](c2c[nH]c4ccc(F)cc24)C1)O3 (relative stereo) [Example 13]    7.73

[A] Cc1ccc2c3c(ccc2n1)OC[C@H](CN[C@@H]1CC[C@@H](c2c[nH]c4ccc(F)cc24)C1)O3 (single isomer, unassigned) [Example 4-Isomer B]
[B] Cc1ccc2c3c(ccc2n1)OCC(CNC1CCC(c2cn(C)c4ccc(F)cc24)C1)O3 (single isomer, unassigned) [Example 5-Isomer A]
Problem: pKi comparison. Which is larger, A or B ? State the label of the item chosen.
Result: B
(B: 7.90, A: 7.58)

[a] Cc1ccc2c3c(ccc2n1)OC[C@H](CN[C@@H]1CC[C@H](c2c[nH]c4ccc(F)cc24)C1)O3 (single isomer, unassigned) [Example 3-Isomer A]
[b] Cc1ccc2c3c(ccc2n1)OCC(CNC1CCC(c2c[nH]c4ccc(F)cc24)C1)O3 (single isomer, unassigned) [Example 3-Isomer B]
Problem: pKi comparison. Which is larger, a or b ? State the label of the item chosen.
Result: b
